// reported melting point for each item listed
A number alone suffices; assume °C.

Some compounds with known melting point results, for comparison:
• CCCCCCCCc1ccc(OCC(=O)Cn2ccc3cc(C(=O)OC)ccc32)cc1 [Example 17] = 118
• CCCCCCCCc1ccc(OCC(=O)Cn2ccc3ccccc32)cc1 = 65
• CCCCCCCCc1ccc(OCC(=O)Cn2cc(C(C)=O)c3cc(C(=O)O)ccc32)cc1 = 197

query: Could you tell me which melting point is on file for CCCCCCCCc1ccc(OCC(=O)Cn2ccc3cc(C#N)ccc32)cc1 [Example 15] ?
result: 96

query: Note, next up: CCCCCCCCc1ccc(OCC(=O)Cn2cc(C=O)c3cc(C(=O)O)ccc32)cc1
result: 193

###

QUANTITY MEASURED: melting point (°C)
# value in °C; strip the unit string

* CCCCCCCCc1ccc(OCC(=O)Cn2cc(Cl)c3cc(C(=O)O)ccc32)cc1 | 157

query: Entry CCCCCCCCc1ccc(OCC(=O)Cn2cc(C(=O)OC)c3cc(C(=O)O)ccc32)cc1 : reported melting point = ?
result: 208

query: Now try CCCCCCCn1ccc2cc(OCC(=O)Cn3ccc4cc(C(N)=O)ccc43)ccc21 .
result: 171

query: Cool, now CCCCCCCCc1ccc(OCC(=O)Cn2ccc3cc(C=O)ccc32)cc1
result: 96

query: Now consider CCCCCCCOc1ccc(OCC(=O)Cn2ccc3cc(C(N)=O)ccc32)cc1 .
result: 114

query: // query: CCCCCCCCc1ccc(OCC(=O)Cn2c(C(=O)O)cc3ccccc32)cc1
result: 173

query: One more compound: CCCCCCCCc1ccc(OCC(=O)Cn2ccc3cc(OC)ccc32)cc1
result: 85

query: Could you do the same for CCCCCCCCc1ccc(OCC(=O)Cn2ccc3cc(Cl)ccc32)cc1 , please?
result: 77

###

QUANTITY MEASURED: melting point

* CCCCCCCCc1ccc(OCC(=O)Cn2cccc2C(=O)O)cc1 [Example 5] | 157 °C (dec.)
* CCCCCCCCc1ccc(OCC(=O)Cn2cc(C(=O)O)c3ccccc32)cc1 [Example 8] | 182 to 183 °C
* CCCCCCCCc1ccc(OCC(=O)Cn2cc(C(C)(C)C)c3cc(C(=O)O)ccc32)cc1 [Example 18] | 146 to 147 °C

Now take the following compound into account.
query: I'd like to know its melting point. The compound in question is CCCCCCCCc1ccc(OCC(=O)Cn2cc(C(C)(C)C)c3ccc(C(=O)O)cc32)cc1 [Example 23]
result: 145 to 146 °C
